IC50 listing for selected compounds.
system: A549 cells; assay: Anti-cancer agents with or without CBD, WST-8 cell survival; type: cell-based; settings: Homo sapiens, read-out: IC50 (μM); A549, 48 h, without CBD
Your answer is read as µM, so omit the unit and give the number.

// solved cases for IC50 follow
{"columns": ["compound", "quantitative.result"],
 "data": [
  ["COc1cc2nccc(Oc3ccc(NC(=O)C4(C(=O)Nc5ccc(F)cc5)CC4)cc3)c2cc1OC [Cabozantinib (XL184), Cabozantinib]", 8.29],
  ["CCC1=C[C@@H]2CN(C1)Cc1c([nH]c3ccccc13)[C@@](C(=O)OC)(c1cc3c(cc1OC)N(C)[C@H]1[C@@](O)(C(=O)OC)[C@H](OC(C)=O)[C@]4(CC)C=CCN5CC[C@]31[C@@H]54)C2", 12.4],
  ["CNC(=O)c1cc(Oc2ccc(NC(=O)Nc3ccc(Cl)c(C(F)(F)F)c3)c(F)c2)ccn1", 5.27],
  ["COc1cc2nccc(Oc3ccc(NC(=O)NC4CC4)c(Cl)c3)c2cc1C(N)=O", 19.9]
]}

// moving on: another record for IC50
Any idea what its IC50 is? The compound is CNC(=O)c1cc(Oc2ccc(NC(=O)Nc3ccc(Cl)c(C(F)(F)F)c3)cc2)ccn1
8.97
